# SUBJECT OF TEST: Halo-EGFP-NanoLuc-FKBP^F36V (H-E-N-F) fusion protein (UniProt P0A3G2+P62942+Q9GV45, A155T/A167V/A172T/A224E/A31E/A60N/A81I/C128F/C176G/D78G/E160K/E257K/F37V/F95D/H272N/I117V/K175M/K195N/K70R/L47V/L54V/L88M/L99Q/M102K/N193R/N227D/P142E/P291S/Q151K/Q38R/Q45L/S2A/S58T/T264A/V71I/Y165I/Y273L/Y87F)
# Sequence (P0A3G2 other isoform, or with tags, fused parts or gaps with the stated changes): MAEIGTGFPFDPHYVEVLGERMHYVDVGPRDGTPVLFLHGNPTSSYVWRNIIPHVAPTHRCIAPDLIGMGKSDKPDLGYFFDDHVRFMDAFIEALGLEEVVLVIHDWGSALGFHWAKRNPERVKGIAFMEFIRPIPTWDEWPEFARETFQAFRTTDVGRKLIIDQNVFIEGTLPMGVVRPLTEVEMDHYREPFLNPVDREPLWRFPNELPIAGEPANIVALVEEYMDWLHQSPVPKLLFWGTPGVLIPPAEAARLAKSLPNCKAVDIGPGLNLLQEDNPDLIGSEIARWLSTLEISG
# Sequence (Q9GV45 other isoform, or with tags, fused parts or gaps with the stated changes): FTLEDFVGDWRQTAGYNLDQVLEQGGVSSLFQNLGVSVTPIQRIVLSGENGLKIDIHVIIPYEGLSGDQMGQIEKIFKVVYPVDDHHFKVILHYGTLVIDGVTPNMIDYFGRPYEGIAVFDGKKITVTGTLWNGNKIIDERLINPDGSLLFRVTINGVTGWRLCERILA
# Sequence (P62942 whole entry F37V, the tested form may be a part): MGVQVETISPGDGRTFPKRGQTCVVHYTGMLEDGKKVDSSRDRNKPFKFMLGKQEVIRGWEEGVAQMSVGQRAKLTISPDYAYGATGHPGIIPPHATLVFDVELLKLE
# Assay type: cell-based
# Set-up: expressed in transfected cells; host or cells: immortalized mouse dermal fibroblasts (iMDFs), ubiquitin promoter, constitutive
# EXPERIMENTAL SETUP: 500 nM; 24 or 48 h after removal
REPORTED ENDPOINT: time up to which degradation was maintained, degrader removed at 5 h

| COMPOUND | OBS VALUE |
| --- | --- |
| CC[C@H](C(=O)N1CCCC[C@H]1C(=O)O[C@H](CCc1ccc(OC)c(OC)c1)c1ccccc1OCC(=O)NCCCCCCC(=O)N[C@H](C(=O)N1C[C@H](O)C[C@H]1C(=O)N[C@@H](C)c1ccc(-c2scnc2C)cc1)C(C)(C)C)c1cc(OC)c(OC)c(OC)c1 | up to 48 h |
| CC[C@H](C(=O)N1CCCC[C@H]1C(=O)O[C@H](CCc1ccc(OC)c(OC)c1)c1ccccc1OCC(=O)NCCCCCCOc1cccc2c1C(=O)N(C1CCC(=O)NC1=O)C2=O)c1cc(OC)c(OC)c(OC)c1 (stereo partly shown) | up to 48 h |

The measurements presented in this section are drawn from paper PMC9019100.
